test system: OVCAR-5 ovarian; test: NCI tumour cell line growth inhibition, 48 h
What TGI was measured for each of the following?

Please give measured TGI of the following entry: O=C(O)c1ccc(Nc2nc3ccc(C(F)(F)F)cc3nc2C(=O)O)cc1
> 100 µM

Please give measured TGI of the following entry: CCN(CC)CCOc1ccc(NC(=O)C(C(C)C)N2C(=O)/C(=C/c3ccc(Br)cc3)SC2=S)cc1 (stereo not given)
10.4 µM

Please give measured TGI of the following entry: COc1cccc(C2c3cc4c(cc3OC(NNC(N)=O)C2C)OCO4)c1OC (stereo not given)
> 100 µM

Please give measured TGI of the following entry: Cc1ccc(-c2nc3ccccc3c(=O)n2NC2OC(CO)C(O)C(O)C2O)cc1 (stereo not given)
> 100 µM

Please give measured TGI of the following entry: CCn1c(=O)c2c3ccc(O)cc3[nH]c2c2ccc(O)cc21
> 100 µM

Please give measured TGI of the following entry: O=C(Cn1c2ccc(Br)cc2c2nc3ccccc3nc21)N1CCOCC1
> 100 µM

Please give measured TGI of the following entry: CCN(CC)CCCNc1nccc2c(C)c3[nH]c4ccncc4c(=O)c3cc12
19.7 µM

Please give measured TGI of the following entry: Cn1cc(-c2csc(-c3cn(CCCN4CCCCC4)c4ccc(Br)cc34)n2)c2cccnc21
3.01 µM

Please give measured TGI of the following entry: O=c1oc2c(O)c(O)cc3c(=O)oc4c(O)c(O)cc1c4c23
> 100 µM

Please give measured TGI of the following entry: N#CCCN(c1ccc(C=Nc2ccc(C(=O)O)cc2)cc1)S(=O)(=O)c1ccccc1
> 100 µM

Please give measured TGI of the following entry: O=C1NC(NNc2ccccc2)=N/C1=C\c1ccco1
> 100 µM

Please give measured TGI of the following entry: CCC/C=C/C=C\C(=O)O[C@@H]1[C@@H](C)[C@]2(O)[C@@H]3C=C(C)C(=O)[C@H]3CC(COC(C)=O)=C[C@H]2[C@@H]2C(C)(C)[C@]12OC(C)=O
119 µM

Please give measured TGI of the following entry: CCCc1nn(C)c(CCC(=O)N(Cc2ccccc2)Cc2ccccc2)c1CC
> 100 µM

Please give measured TGI of the following entry: O=C(O)c1ccc(Nc2nc3ccc(C(F)(F)F)cc3nc2-c2ccccc2)cc1
> 100 µM

Please give measured TGI of the following entry: CCCc1cn2c(/C=N/N=C(N)N)c(-c3ccc([N+](=O)[O-])cc3)nc2s1
3.14 µM

Please give measured TGI of the following entry: C=C1C(=O)O[C@H]2[C@H]1CC/C(CNC(=O)C(C)c1ccc(CC(C)C)cc1)=C\CC[C@@]1(C)O[C@@H]21 (stereo not given in full)
4.04 µM

Please give measured TGI of the following entry: CC(=O)OC1CC2C(=O)CC1(C)C2(C)C (stereo not given)
> 100 µM

Please give measured TGI of the following entry: COC(=O)/C=C(C)/C=C/c1c(C)c(C(C)=O)c(C)n1C
> 100 µM

Please give measured TGI of the following entry: CC1=C(N2CC2)C(=O)C(C)=C(N2CC2)C1=O
3.3 µM

Please give measured TGI of the following entry: O=C(N/N=C/c1cc(Cl)cc(Cl)c1[OH2+])c1ccncc1.O=S(=O)([O-])[O-].[Fe+2]
49.8 µM

###

What TGI was measured for each of the following?
system: KM20L2 colon; experiment: NCI tumour cell line growth inhibition, 48 h
Express your answer in µM, writing the number without its unit.

Please give measured TGI of the following entry: CCCCCCCCCCCCCP(=O)(OC)OC
42.8

Please give measured TGI of the following entry: CC(/C=C1\CCC(CN(C)C)C1=O)c1cccc(Br)c1 (stereo not drawn)
45.4

Please give measured TGI of the following entry: COc1ccccc1/C=C1\CCC(CN2CCOCC2)C1=O (stereo not drawn)
32.6

###

tested on: MALME-3M melanoma; test: NCI tumour cell line growth inhibition, 48 h
metric.name: TGI (µM)
Express your answer in µM, writing the number without its unit.

Please give measured TGI of the following entry: O=C(Nc1cccc(-n2ccc3c(NC(=O)c4ccccc4)nccc32)c1)c1ccc(Cl)c(Cl)c1
2.27

Please give measured TGI of the following entry: O=C1c2c(c3c4ccccc4n(CCCCCCN4CCOCC4)c3c3[nH]c4ccccc4c23)C(=O)N1O
3.76

Please give measured TGI of the following entry: Cn1c2ccccc2c(=NNc2ccc(S(=O)(=O)N=C(N)N)cc2)c2ccccc21
20.7

Please give measured TGI of the following entry: Cc1nnc(N)nc1C/C=C/C(C)Sc1ccc(Cl)cc1 (stereo not given)
33.7

Please give measured TGI of the following entry: CN1CCN(C(=O)[C@@]2(C)CC[C@]3(C)CC[C@]4(C)C(=CC[C@@H]5[C@@]6(C)CC[C@H](OC(=O)c7cccnc7)C(C)(C)[C@@H]6CC[C@]54C)[C@@H]3C2)CC1
3.54

Please give measured TGI of the following entry: C=C(C)C1CC=C(C)C(O)([C@@]2(O)C[C@H](C(=C)C)CC=C2C)C1 (stereo not given in full)
81.8

Please give measured TGI of the following entry: CCOC(=O)C12CCC(c3c(C)cccc3C)(O1)C(C(=O)OC)=C2C(=O)OC (stereo not given)
6.4

Please give measured TGI of the following entry: Cc1nc2c(n1Cc1ccc(F)cc1)C(=O)c1ccccc1C2=O
31.7

Please give measured TGI of the following entry: Cn1c2ccccc2c2c(=O)n(CCCC(=O)NCCc3cnc[nH]3)c3c(-c4ccccc4)nnn3c21
16.7

Please give measured TGI of the following entry: O=C(N/N=C/c1cc(Cl)cc(Cl)c1[O-])c1ccccc1O.O=C(N/N=C/c1cc(Cl)cc(Cl)c1[O-])c1ccccc1O.[Fe+2]
61.9

Please give measured TGI of the following entry: CCCc1cn2c(/C=N/N=C(N)N)c(-c3ccc([N+](=O)[O-])cc3)nc2s1
3.86

###

What TGI was measured for each of the following?
system: UACC-62 melanoma; test: NCI tumour cell line growth inhibition, 48 h

Please give measured TGI of the following entry: O=C1CS(=O)c2ccccc2N1 (stereo not drawn)
> 100 µM

Please give measured TGI of the following entry: CCCCCCCCCCCCCP(=O)(OC)OC
32.2 µM

Please give measured TGI of the following entry: CCC1=CCC(P(=O)(c2ccccc2)c2ccccc2)CC1C (stereo not drawn)
> 100 µM

Please give measured TGI of the following entry: CC1=NC(=O)CNN1C1=NNC2(C(=O)N1)c1ccccc1-c1ccccc12
> 100 µM

Please give measured TGI of the following entry: COC(=O)c1cc2c([nH]c3ccccc32)c(-c2nc3ccccc3cc2CO)n1
> 100 µM

Please give measured TGI of the following entry: CN(CCCCCCCCNc1ccnc2ccccc12)Cc1ccc(-c2ccc(-c3ccc(C#N)cc3)s2)cc1
2.92 µM

Please give measured TGI of the following entry: COC(=O)N1C2C(C[C@@]1(C)C(=O)OC)c1ccccc1N2S(=O)(=O)c1ccccc1 (stereo partly drawn)
> 100 µM

Please give measured TGI of the following entry: CCc1c2c(nc3ccc(OC(=O)OCc4ccc(B5OC(C)(C)C(C)(C)O5)cc4)cc13)-c1cc3c(c(=O)n1C2)COC(=O)[C@]3(O)CC
0.104 µM

Please give measured TGI of the following entry: CCc1nc(N)nc(N)c1-c1ccc(N(C)Cc2ccccc2)c([N+](=O)[O-])c1
13 µM

Please give measured TGI of the following entry: COc1ccc(OC)c(CCc2ccccc2CC(=O)O)c1
> 100 µM

Please give measured TGI of the following entry: O=C1/C=C/[C@@H](O)[C@@H]2C[C@@H](O)C[C@H]2/C=C/CCC[C@H](CCc2ccc(NC(=S)Nc3ccc4c(c3)C(=O)OC43c4ccc(O)cc4Oc4cc(O)ccc43)cc2)O1
30.7 µM

Please give measured TGI of the following entry: CC(=O)Oc1ccc(C)c2c1[C@H]1CC[C@]3(C)[C@@H](OC(C)=O)CC[C@H]3[C@@H]1CC2
34.5 µM

Please give measured TGI of the following entry: NS(=O)(=O)c1ccc(-n2nc(-c3ccccc3)cc2-c2cc(O)ccc2O)cc1
> 100 µM

Please give measured TGI of the following entry: CN1CCN(C(=O)[C@@]2(C)CC[C@]3(C)CC[C@]4(C)C(=CC[C@@H]5[C@@]6(C)CC[C@H](OC(=O)c7cccnc7)C(C)(C)[C@@H]6CC[C@]54C)[C@@H]3C2)CC1
3.46 µM

Please give measured TGI of the following entry: N#CCCN(c1ccc(C=Nc2ccc(C(=O)O)cc2)cc1)S(=O)(=O)c1ccccc1
> 100 µM

Please give measured TGI of the following entry: CN(C)C[C@@H]1CCn2cc(c3ccccc32)C2=C(C(=O)NC2=O)c2cn(c3ccccc23)CCO1
> 10 µM

Please give measured TGI of the following entry: Cc1cc(S(=O)(=O)Nc2nnc3c(Cl)cc(C(F)(F)F)cn23)c(S)cc1Cl
> 100 µM

Please give measured TGI of the following entry: COc1cc(Cn2c3ccccc3c3cc(C)cc(OC)c32)cc2c1[nH]c1ccccc12
> 25 µM
